ASSAYED SYSTEM: SifR WT (Streptococcus pneumoniae D39, UniProt A0A0H2ZNG7 1-145)
ASSAY: fluorescence anisotropy competition; reduced, 2 mM TCEP; competitor of F-catE; 25 mM Tris-HCl, 150 mM NaCl, 2 mM EDTA, 2 mM TCEP, pH 7.5, 25 C, ~10 nM labeled DNA (Fig S8: 50 mM Tris-HCl, 150 mM NaCl, pH 7.4, 25 C; NMR: 25 mM MES pH 6.5, 150 mM NaCl, 25 C)
CONDITION DETAILS: protein: recombinant; tags: His6 removed by TEV; tag-free; chain copies: 2; blunt
PARAMETER: Ka

Below: 2 binders and their reported Ka.
BINDER	Ka
trxB O/P (dsDNA) DNA 1: GAAAGAGTTAGAATAAAGATAGTTACAACAAG DNA 2: CTTGTTGTAACTATCTTTATTCTAACTCTTTC	0.13 10^8 M-1
ywnB O/P (dsDNA) DNA 1: CAATTGCTGTAACTAAAATAATTACAACAAG DNA 2: CTTGTTGTAATTATTTTAGTTACAGCAATTG	3.2 10^8 M-1

**Query** Given fre O/P (dsDNA) DNA 1: GATAAAATGTAACAAATTTATTTACAACAAATC DNA 2: GATTTGTTGTAAATAAATTTGTTACATTTTATC , state its recorded Ka.
**Result** 0.25 10^8 M-1

**Query** Given yhdA O/P (dsDNA) DNA 1: GTTTTGTTGTAATATATTTTATAACAACGAG DNA 2: CTCGTTGTTATAAAATATATTACAACAAAAC , state its recorded Ka.
**Result** 0.23 10^8 M-1

Data origin: paper PMC9218516
